Molecular target: mSUCNR1 (Mus musculus)
Construct: FLAG (own knowledge: pCMV-Tag 2B is an N-terminal FLAG vector); host or cells: HEK-293, transient transfection with Lipofectamine-2000
Sequence (Q99MT6 1-317): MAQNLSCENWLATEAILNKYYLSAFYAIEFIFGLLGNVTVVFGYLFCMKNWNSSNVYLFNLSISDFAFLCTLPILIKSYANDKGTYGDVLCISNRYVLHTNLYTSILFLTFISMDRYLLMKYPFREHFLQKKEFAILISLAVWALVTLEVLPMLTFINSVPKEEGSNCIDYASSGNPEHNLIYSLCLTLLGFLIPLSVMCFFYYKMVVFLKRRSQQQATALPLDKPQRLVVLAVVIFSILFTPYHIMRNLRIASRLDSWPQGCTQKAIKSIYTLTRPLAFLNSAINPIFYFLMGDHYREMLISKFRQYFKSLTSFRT
Assay: IP3 turnover assay in mSUCNR1 transfected HEK-293 cells
Format: cell-based
Details: dose-response curves of induction of IP3 turnover in SUCNR1 transfected HEK cells (N = 3); read-out: mSUCNR1 pEC50 (converted)
Recorded EC50, one value per entry.

[
  {
    "smiles.data": "O=C(O)C[C@H](NC(=O)c1cccc(-c2ccc(F)cc2)c1)C(=O)O",
    "EC50": "3980 nM"
  },
  {
    "smiles.data": "COc1ccc(-c2cccc(C(=O)N[C@@H](CC(=O)O)C(=O)O)c2)cc1",
    "EC50": "1200 nM"
  },
  {
    "smiles.data": "CCCOc1ccc(-c2cccc(C(=O)N[C@@H](CC(=O)O)C(=O)O)n2)cc1",
    "EC50": "51.3 nM"
  }
]

API: the following record is the query input.
Ask: State EC50 on mSUCNR1 (Mus musculus). Entry: O=C(O)C[C@H](NC(=O)c1cccc(-c2ccc(OC(F)(F)F)cc2)c1)C(=O)O
Result: 1450 nM

---

Molecular target: hSUCNR1 (Homo sapiens, UniProt Q9BXA5)
Construct: FLAG (own knowledge: pCMV-Tag 2B is an N-terminal FLAG vector); host or cells: HEK-293, transient transfection with Lipofectamine-2000
Sequence (Q9BXA5 1-334): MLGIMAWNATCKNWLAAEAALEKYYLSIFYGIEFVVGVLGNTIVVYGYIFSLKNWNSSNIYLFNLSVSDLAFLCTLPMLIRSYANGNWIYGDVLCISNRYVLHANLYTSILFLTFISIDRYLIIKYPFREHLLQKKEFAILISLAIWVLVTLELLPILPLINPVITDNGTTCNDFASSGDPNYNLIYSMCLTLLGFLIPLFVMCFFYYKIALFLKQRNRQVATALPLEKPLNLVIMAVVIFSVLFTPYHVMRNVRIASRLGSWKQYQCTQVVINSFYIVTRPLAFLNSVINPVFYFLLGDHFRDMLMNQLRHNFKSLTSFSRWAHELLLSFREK
Experiment: IP3 turnover assay in hSUCNR1 transfected HEK-293 cells
Assay type: cell-based
Settings: dose-response curves of induction of IP3 turnover in SUCNR1 transfected HEK cells (N = 3); read-out: hSUCNR1 pEC50 (converted)
Each entry below lists one item and its recorded EC50 value.
# number only, unit nM dropped from output

Field: example entries. Status: answers known.
[
  {
    "smiles.data": "O=C(O)C[C@H](NC(=O)c1cccc(-c2ccc(OCC(F)(F)F)cc2)n1)C(=O)O",
    "EC50 (nM)": 58.9
  },
  {
    "smiles.data": "O=C(O)C[C@H](NC(=O)c1cccc(-c2ccc(F)cc2)c1)C(=O)O",
    "EC50 (nM)": 1230
  },
  {
    "smiles.data": "COc1ccc(-c2cccc(C(=O)N[C@@H](CC(=O)O)C(=O)O)c2)cc1",
    "EC50 (nM)": 162
  }
]

Proceed to the following item.
Ask: Please report EC50 for the following compound: O=C(O)C[C@H](NC(=O)c1cccc(-c2ccc(OC(F)(F)F)cc2)c1)C(=O)O
Result: 58.9

---

The following compounds are shown together with reported mSUCNR1 % @10^−4M values.
Molecular target: mSUCNR1 (Mus musculus)
Construct: FLAG (own knowledge: pCMV-Tag 2B is an N-terminal FLAG vector); host or cells: HEK-293, transient transfection with Lipofectamine-2000
Assay: IP3 turnover assay in mSUCNR1 transfected HEK-293 cells
Assay type: cell-based
Details: @10^−4M; IP3 turnover, relative to succinate (100%)
Lab book: enter the figure in % @10^−4M, no units written.

[
  {
    "compound": "O=C(O)C[C@H](NC(=O)c1ccccc1Cl)C(=O)O [Compound 5, (2-Chlorobenzoyl)-L-aspartic acid]",
    "target": "mSUCNR1 (Mus musculus)",
    "unit.info": "% @10^−4M",
    "mSUCNR1 % @10^−4M": 13
  },
  {
    "compound": "O=C(O)C[C@H](NC(=O)Cc1ccc(Br)cc1)C(=O)O [Compound 8]",
    "target": "mSUCNR1 (Mus musculus)",
    "unit.info": "% @10^−4M",
    "mSUCNR1 % @10^−4M": 11
  },
  {
    "compound": "O=C(O)C[C@H](NC(=O)c1cccc(I)c1)C(=O)O [Compound 6, (3-Iodobenzoyl)-L-aspartic acid]",
    "target": "mSUCNR1 (Mus musculus)",
    "unit.info": "% @10^−4M",
    "mSUCNR1 % @10^−4M": 64
  }
]

Ask: For the compound O=C(O)C[C@H](NC(=O)c1ccc(Br)cc1)C(=O)O [Compound 7, (4-Bromobenzoyl)-L-aspartic acid] , give its measured mSUCNR1 % @10^−4M value.
Result: 15

Ask: Supply mSUCNR1 % @10^−4M value. Item: O=C(O)C[C@H](NC(=O)Cc1ccc(-c2ccc(F)cc2)cc1)C(=O)O [Compound 9]
Result: 15

Ask: Note mSUCNR1 % @10^−4M for the compound shown: O=C(O)C[C@H](NC(=O)c1ccc(-c2ccc(F)cc2)cc1)C(=O)O [Compound 26]
Result: 7

---

Molecular target: hSUCNR1 (Homo sapiens, UniProt Q9BXA5)
Construct: FLAG (own knowledge: pCMV-Tag 2B is an N-terminal FLAG vector); host or cells: HEK-293, transient transfection with Lipofectamine-2000
Experiment: IP3 turnover assay in hSUCNR1 transfected HEK-293 cells
Format: cell-based
Simple rule here: EC50 less than 5000 nM is Criterion met, otherwise Criterion not met.

[
  {
    "molecule": "N#Cc1ccc(-c2ccc(C(=O)N[C@@H](CC(=O)O)C(=O)O)o2)cc1 [Compound 19]",
    "label.class": "Criterion met"
  },
  {
    "molecule": "Cc1ccccc1-c1ccc(C(=O)N[C@@H](CC(=O)O)C(=O)O)o1 [Compound 11]",
    "label.class": "Criterion not met"
  }
]

Ask: Hello, is EC50 of the following molecule strictly smaller than 5000 nM? CS(=O)(=O)CCCOc1ccc(-c2ccc(C(=O)N[C@@H](CC(=O)O)C(=O)O)o2)cc1 [Compound 24]
Result: Criterion met

Ask: I wonder whether O=C(O)C[C@H](NC(=O)c1ccc(-c2ccc(OC(F)(F)F)cc2)o1)C(=O)O [Compound 20] has EC50 below 5000 nM. Can you tell?
Result: Criterion met

Ask: Regarding CC(C)Oc1ccc(-c2ccc(C(=O)N[C@@H](CC(=O)O)C(=O)O)o2)cc1 [Compound 22] , kindly confirm whether its EC50 is beneath 5000 nM.
Result: Criterion met

Ask: I'd appreciate it if you could check whether O=C(O)C[C@H](NC(=O)c1ccc(-c2ccc(O)cc2)o1)C(=O)O [Compound 15] has EC50 smaller than 5000 nM.
Result: Criterion met

Ask: Lab note: confirm whether the reported EC50 for this molecule is below 5000 nM, equality not counting. molecule: COc1ccc(-c2ccc(C(=O)N[C@@H](CC(=O)O)C(=O)O)o2)cc1 [Compound 17]
Result: Criterion met

---

Molecular target: hSUCNR1 (Homo sapiens, UniProt Q9BXA5)
Construct: FLAG (own knowledge: pCMV-Tag 2B is an N-terminal FLAG vector); host or cells: HEK-293, transient transfection with Lipofectamine-2000
Experiment: IP3 turnover assay in hSUCNR1 transfected HEK-293 cells
Format: cell-based
Settings: @10^−4M; IP3 turnover, relative to succinate (100%)
Protocol: Receptor constructs for mSUCNR1 and hSUCNR1 were bought from Origene and cloned into the eukaryotic expression vector pCMV-Tag(2B) (Stratagene). Transient transfection of the HEK-293 cells was done with Lipofectamine-2000 according to manufacturer’s protocol. […] 96-well plates were coated with poly-D-lysine and HEK-293 cells were plated (35.000 cells/well). […] The plate was spun down, and a Packard Top Count NXT counter recorded light emission (scintillation) after an 8 h delay.
Strictly below 20 % @10^−4M in hSUCNR1 % @10^−4M: 1 (yes). Otherwise: 0 (no).

# count of solved cases: 3
[
  {
    "smiles.data": "O=C(O)C[C@H](NC(=O)c1ccc(Br)cc1)C(=O)O",
    "label.class": "1 (yes)"
  },
  {
    "smiles.data": "O=C(O)C[C@H](NC(=O)c1cccc(I)c1)C(=O)O",
    "label.class": "0 (no)"
  },
  {
    "smiles.data": "O=C(O)C[C@H](NC(=O)c1ccc(-c2ccc(F)cc2)cc1)C(=O)O",
    "label.class": "1 (yes)"
  }
]

Ask: Is it true that hSUCNR1 % @10^−4M reported for O=C(O)C[C@H](NC(=O)c1ccccc1Cl)C(=O)O is less than 20 % @10^−4M?
Result: 0 (no)

Ask: Threshold test, hSUCNR1 % @10^−4M < 20 % @10^−4M: O=C(O)C[C@H](NC(=O)Cc1ccc(-c2ccc(F)cc2)cc1)C(=O)O
Result: 0 (no)

Ask: Please let me know if O=C(O)C[C@H](NC(=O)Cc1ccc(Br)cc1)C(=O)O shows hSUCNR1 % @10^−4M below 20 % @10^−4M.
Result: 1 (yes)
